- experimental-target: full-length SHP2^T42A (Homo sapiens, UniProt Q06124, T42A)
- Construct: Full-length SHP2 constructs were diluted in assay buffer; His6-TEV (N, cleaved yes)
- Sequence (Q06124 1-593 T42A): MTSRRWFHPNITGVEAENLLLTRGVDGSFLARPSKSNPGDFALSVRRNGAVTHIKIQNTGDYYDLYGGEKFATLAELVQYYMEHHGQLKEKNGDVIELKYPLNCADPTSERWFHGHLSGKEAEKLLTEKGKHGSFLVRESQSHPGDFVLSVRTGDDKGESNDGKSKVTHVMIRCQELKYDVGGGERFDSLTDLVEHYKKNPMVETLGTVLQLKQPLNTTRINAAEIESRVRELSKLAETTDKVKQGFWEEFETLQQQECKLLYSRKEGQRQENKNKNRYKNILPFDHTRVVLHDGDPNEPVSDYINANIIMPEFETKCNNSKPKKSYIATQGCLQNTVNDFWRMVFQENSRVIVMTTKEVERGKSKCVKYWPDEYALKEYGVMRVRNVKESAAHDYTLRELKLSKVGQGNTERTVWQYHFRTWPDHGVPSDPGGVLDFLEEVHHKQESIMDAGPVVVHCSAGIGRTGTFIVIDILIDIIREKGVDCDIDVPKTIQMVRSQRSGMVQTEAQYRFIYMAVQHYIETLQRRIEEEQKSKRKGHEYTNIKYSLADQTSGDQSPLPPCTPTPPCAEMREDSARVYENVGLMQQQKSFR
- protocol: SHP2 activation assay using phosphopeptides (DiFMUP), SHP2 T42A
- measurement-conditions: activation of full-length SHP2 T42A (0.05 nM) by phosphopeptide; DiFMUP substrate; HEPES pH 7.2 assay buffer; mean of N (column N)
pEC50: −log10 of the molar value.
pEC50 vs 6: at or above is Y, below is N.

Use these answered entries as a reference point.
- CC[C@H](C)[C@H](NC(=O)[C@H](CC(=O)O)NC(=O)[C@H](C)NC(=O)[C@H](Cc1ccc(OP(=O)(O)O)cc1)NC(=O)[C@H](CCCCN)NC(=O)[C@@H](NC(=O)[C@H](CC(=O)O)NC(=O)CNC(=O)[C@H](CCCCN)NC(=O)[C@H](CCSC)NC(C)=O)C(C)C)C(=O)N[C@@H](CCC(=O)O)C(=O)N[C@@H](CO)C(=O)N[C@@H](CO)C(N)=O: N
- CC(=O)N1CCC[C@H]1C(=O)N[C@H](C(=O)N[C@@H](Cc1ccccc1)C(=O)N[C@@H](CO)C(=O)N[C@H](C(=O)N[C@@H](CC(=O)O)C(=O)N[C@@H](Cc1ccc(OP(=O)(O)O)cc1)C(=O)NCC(=O)N[C@@H](CCC(=O)O)C(=O)N[C@@H](CC(C)C)C(=O)N[C@@H](CC(=O)O)C(=O)N[C@@H](Cc1ccccc1)C(=O)N[C@@H](CCC(N)=O)C(N)=O)C(C)C)C(C)C: N
- CC[C@H](C)[C@H](NC(=O)[C@H](Cc1ccc(OP(=O)(O)O)cc1)NC(=O)[C@H](CC(N)=O)NC(=O)[C@H](CC(C)C)NC(=O)CNC(=O)[C@H](CC(N)=O)NC(=O)[C@H](CCC(=O)O)NC(=O)[C@H](CC(C)C)NC(C)=O)C(=O)N[C@@H](CC(=O)O)C(=O)N[C@@H](CC(C)C)C(=O)N[C@@H](CC(=O)O)C(=O)N[C@@H](CC(C)C)C(=O)N[C@H](C(N)=O)C(C)C: Y

Dear colleague, could you confirm whether `CC[C@H](C)[C@H](NC(=O)[C@H](CC(N)=O)NC(=O)[C@@H](NC(=O)[C@H](Cc1ccc(OP(=O)(O)O)cc1)NC(=O)[C@H](CCC(=O)O)NC(=O)CNC(=O)[C@@H]1CCCN1C(=O)[C@H](CO)NC(=O)[C@H](CCCCN)NC(=O)[C@@H]1CCCN1C(C)=O)C(C)C)C(=O)N[C@@H](CCC(=O)O)C(=O)N[C@@H](Cc1ccccc1)C(=O)NCC(N)=O` has pEC50 at or above 6?
N

###

- experimental-target: SHP2 N-SH2^WT domain (Homo sapiens)
- Construct: SHP2 SH2 domains were cloned into a His6-SUMO-SH2-Avi construct; His6-SUMO (N, cleaved yes); made in house; host or cells: E. coli C43(DE3), co-expressed with BirA
- Sequence (Q06124 6-102 limits assumed): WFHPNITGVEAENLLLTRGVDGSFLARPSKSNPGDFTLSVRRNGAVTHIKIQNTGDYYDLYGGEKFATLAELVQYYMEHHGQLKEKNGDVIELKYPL
- protocol: SH2 specificity profiling by bacterial peptide display (Human pTyr and pTyr-Var Libraries), N-SH2 WT
- Assay type: binding
- measurement-conditions: bacterial peptide display, enzymatically phosphorylated displayed peptides, SH2-coated beads, deep sequencing; frequency in enriched sample / input; average, Human pTyr Library N = 3, pTyr-Var Library N = 2
No end group written: not given here.
The entries below come with measured N-WT-Ave (enrichment score) values attached.
Reply briefly: the number, and no unit.

Given the sequence MKGDYHRYLAEFATG (also: phosphorylated, site not given here) [1433E_HUMAN_131] , what is its reported N-WT-Ave (enrichment score)?
0.8269

Given the sequence MKGDAHRYLAEFATG (bacterially displayed) [1433E_HUMAN_131_YA] , what is its reported N-WT-Ave (enrichment score)?
0.7788

Given the sequence MKGDYYRYLAEVATG (also: phosphorylated, site not given here) [1433G_HUMAN_133] , what is its reported N-WT-Ave (enrichment score)?
0.8572

Given the sequence SDRKGGSYTQAASSD (also: phosphorylated, site not given here) [1A01_HUMAN_344] , what is its reported N-WT-Ave (enrichment score)?
0.7728

Given the sequence MKGDAARYLAEVATG (bacterially displayed) [1433G_HUMAN_133_YA] , what is its reported N-WT-Ave (enrichment score)?
0.9356

###

- experimental-target: SHP2 C-SH2^WT domain (Homo sapiens)
- Construct: SHP2 SH2 domains were cloned into a His6-SUMO-SH2-Avi construct; His6-SUMO (N, cleaved yes); made in house; host or cells: E. coli C43(DE3), co-expressed with BirA
- Sequence (Q06124 112-216 limits assumed): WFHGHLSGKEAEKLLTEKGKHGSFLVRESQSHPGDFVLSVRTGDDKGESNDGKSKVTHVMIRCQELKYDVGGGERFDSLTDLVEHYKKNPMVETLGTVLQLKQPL
- protocol: SH2 specificity profiling by bacterial peptide display (Human pTyr and pTyr-Var Libraries), C-SH2 WT
- Format: binding
- measurement-conditions: average enrichment score above cutoff of 3.2 (true binder)
No end group written: not given here.
test-readout: >3.2 --> C-WT-Ave

// below: answered sequences
- SDRKGGSYTQAASSD (also: phosphorylated, site not given here) [1A01_HUMAN_344]: FALSE (>3.2 -->)
- MKGDYHRYLAEFATG (also: phosphorylated, site not given here) [1433E_HUMAN_131]: FALSE (>3.2 -->)
- MKGDAARYLAEVATG (bacterially displayed) [1433G_HUMAN_133_YA]: FALSE (>3.2 -->)
- MKGDYYRYLAEVATG (also: phosphorylated, site not given here) [1433G_HUMAN_133]: FALSE (>3.2 -->)

Moving on to the next sequence.
Given the sequence MKGDAHRYLAEFATG (bacterially displayed) [1433E_HUMAN_131_YA] , what is its reported >3.2 --> C-WT-Ave?
FALSE (>3.2 -->)

###

The entries below come with measured EC50 values attached.
- experimental-target: full-length SHP2^R138Q (Homo sapiens, UniProt Q06124, R138Q)
- Construct: Full-length SHP2 constructs were diluted in assay buffer; His6-TEV (N, cleaved yes)
- protocol: SHP2 activation assay using phosphopeptides (DiFMUP), SHP2 R138Q
- measurement-conditions: activation of full-length SHP2 R138Q (0.05 nM) by phosphopeptide; DiFMUP substrate; HEPES pH 7.2 assay buffer; mean of N (column N)
Express your answer in µM, writing the number without its unit.

Given the molecule `CSCC[C@H](NC(=O)[C@H](CC(C)C)NC(=O)[C@H](CCC(N)=O)NC(=O)[C@H](C)NC(=O)[C@H](Cc1ccc(OP(=O)(O)O)cc1)NC(=O)[C@H](CC(N)=O)NC(=O)[C@H](CC(C)C)NC(=O)[C@H](C)NC(=O)[C@H](C)NC(=O)[C@H](CCCCN)NC(=O)[C@H](CCCCN)NC(C)=O)C(=O)N[C@@H](Cc1ccccc1)C(=O)N1CCC[C@H]1C(N)=O` , what is its reported EC50?
4.2

Given the molecule `CC(=O)N[C@@H](CO)C(=O)N[C@H](C(=O)NCC(=O)N[C@@H](CO)C(=O)N[C@H](C(=O)N[C@@H](CC(=O)O)C(=O)N[C@@H](Cc1ccc(OP(=O)(O)O)cc1)C(=O)N[C@@H](CC(C)C)C(=O)N[C@@H](C)C(=O)N[C@@H](CC(C)C)C(=O)N[C@@H](CC(=O)O)C(=O)N[C@@H](Cc1ccccc1)C(=O)N[C@@H](CCC(N)=O)C(N)=O)C(C)C)[C@@H](C)O` , what is its reported EC50?
5.98

Given the molecule `CC(=O)N[C@@H](C)C(=O)N[C@@H](CCCCN)C(=O)N[C@@H](CO)C(=O)NCC(=O)N[C@@H](C)C(=O)N[C@H](C(=O)N[C@@H](Cc1ccc(OP(=O)(O)O)cc1)C(=O)N[C@@H](CO)C(=O)N[C@@H](CCC(=O)O)C(=O)N[C@@H](CC(C)C)C(=O)N[C@@H](CC(N)=O)C(=O)N[C@@H](Cc1ccccc1)C(=O)NCC(N)=O)C(C)C` , what is its reported EC50?
166

This collection of values is drawn from paper doi:10.1101/2023.07.10.548257.
